Attribution: paper PMC8903829

- assay_remarks: Bioanalytical assessment of plasma and brain concentrations after 6 Hz assay
- Type: in vivo, mouse
- condition: Scn8a^N1768D/+, mouse, plasma, oral, 30 mg/kg, Study16152, 30 mg/kg, SCN8A mouse 6HZ; read-out: Mean [Palsma]
parameter: concentration at 2 h (µM)
Numeric answer only, unit µM assumed.

### Prompt Given the entry NC(=O)N1c2ccccc2C=Cc2ccccc21 [carbamazepine, Carbamazepine, reference compound] , report its measured concentration at 2 h.
### Response 48.7

====

- assay_remarks: Bioanalytical assessment of plasma and brain concentrations after rat DC-MES assay
- Format: in vivo
- condition: rat, plasma, po, 10 mg/kg, sheet Figure 5G, 5H, 5I (rats), 10 mg/kg PO single dose, 2 hr; read-out: Mean [Plasma]
parameter: concentration at 2 h
Note to self: number, then unit, no commentary.

### Prompt What does the data say about its concentration at 2 h? Entry: `Cc1cc(S(=O)(=O)Nc2cscn2)c(F)cc1N(C)[C@H]1CCN(Cc2ccccc2)C1`
### Response 1150 nM

====

- assay_remarks: Bioanalytical assessment of plasma and brain concentrations after mouse DC-MES assay
- Format: in vivo
- condition: mouse, plasma, oral, 100 mg/kg, Study17131, 100 mg/kg, WT mouse DC-MES acute; read-out: Mean [Palsma]
parameter: concentration at 2 h (µM)
Quick reminder: number only, in µM, skip the unit.

### Prompt Any idea what its concentration at 2 h is? The compound is NC(=O)N1c2ccccc2C=Cc2ccccc21 [carbamazepine, Carbamazepine, reference compound]
### Response 91.3

====

- assay_remarks: Bioanalytical assessment of plasma and brain concentrations after mouse DC-MES assay
- Assay type: in vivo
- condition: mouse, brain, oral, 30 mg/kg, Study17131, 30 mg/kg, WT mouse DC-MES acute; read-out: Mean [Brain]
parameter: concentration at 2 h (µM)
Entry rule: numbers only, all in µM.

### Prompt Name the reported concentration at 2 h value associated with the compound NC(=O)N1c2ccccc2C=Cc2ccccc21 [carbamazepine, Carbamazepine, reference compound]
### Response 43.1

====

- assay_remarks: Bioanalytical assessment of plasma and brain concentrations after mouse DC-MES assay
- Assay type: in vivo
- condition: mouse, brain, oral, 100 mg/kg, Study17131, 100 mg/kg, WT mouse DC-MES acute; read-out: Mean [Brain]
- Procedure: Approximately 0.5 mL of blood was collected from each mouse at the end of the assay via cardiac puncture under deep anesthesia. The blood samples were collected in a syringe and transferred to tubes containing EDTA. Blood was stored at 4 °C until centrifuged within 30 min of collection. […] Extraction of plasma samples was carried out by protein precipitation using acetonitrile. […] The samples were analyzed by UHPLC-ESI-MS/MS as described below. […]
parameter: concentration at 2 h (µM)
Please reply with the bare figure in µM and do not write the unit itself.

### Prompt Given the entry NC(=O)N1c2ccccc2C=Cc2ccccc21 [carbamazepine, Carbamazepine, reference compound] , report its measured concentration at 2 h.
### Response 115

====

- assay_remarks: Bioanalytical assessment of plasma and brain concentrations after 6 Hz assay
- Type: in vivo, mouse
- condition: Scn8a^N1768D/+, mouse, brain, po, 300 mg/kg, Scn8a mice, 300 mg/kg PO single dose, after assay 2 hr post dose; read-out: Mean [Brain]
parameter: concentration at 2 hr (µM)
// units = µM; emit number, no label

### Prompt Recorded concentration at 2 hr of Cc1cc(S(=O)(=O)Nc2cscn2)c(F)cc1N(C)[C@H]1CCN(Cc2ccccc2)C1 [NBI-921352] , please.
### Response 6.94

====

- Test system: wild-type mice (CF-1)
- assay_remarks: DC-Maximal electroshock seizure assay (DC-MES)
- Format: in vivo, mouse
- condition: WT mouse DC-MES, 2 hr post dose (oral; phenytoin i.p.); read-out: brain EC50
// reported EC50 for each item listed
All answers are understood in µM, so give the number only.

Below, 2 molecules whose answers are already recorded.
1) Cc1cc(S(=O)(=O)Nc2cscn2)c(F)cc1N(C)[C@H]1CCN(Cc2ccccc2)C1 [NBI-921352] | 0.2
2) O=C1NC(=O)C(c2ccccc2)(c2ccccc2)N1 [phenytoin, Phenytoin] | 13

Field: next molecule
### Prompt What EC50 value was documented for this molecule, NC(=O)N1c2ccccc2C=Cc2ccccc21 [carbamazepine, Carbamazepine, reference compound] ?
### Response 44

====

- assay_remarks: Bioanalytical assessment of plasma and brain concentrations after rat DC-MES assay
- Format: in vivo
- condition: rat, brain, po, 30 mg/kg, sheet Figure 5G, 5H, 5I (rats), 30 mg/kg PO single dose, 2 hr; read-out: Mean [Brain]
parameter: concentration at 2 h (nM)
Write it as a number; the unit nM goes unstated.

### Prompt Bench note: what concentration at 2 h did Cc1cc(S(=O)(=O)Nc2cscn2)c(F)cc1N(C)[C@H]1CCN(Cc2ccccc2)C1 [NBI-921352] show?
### Response 213

====

- assay_remarks: Bioanalytical assessment of plasma and brain concentrations after 6 Hz assay
- Assay type: in vivo, mouse
- condition: Scn8a^N1768D/+, mouse, plasma, oral, 3 mg/kg, Study16152, 3 mg/kg, SCN8A mouse 6HZ; read-out: Mean [Palsma]
parameter: concentration at 2 h
Give the number first and the unit second.

### Prompt Sample NC(=O)N1c2ccccc2C=Cc2ccccc21 [carbamazepine, Carbamazepine, reference compound] — what was its concentration at 2 h?
### Response 4.75 µM

====

- assay_remarks: Bioanalytical assessment of plasma and brain concentrations after 6 Hz assay
- Format: in vivo, mouse
- condition: Scn8a^N1768D/+, mouse, in vivo, 30 mg/kg, Study18011, 30 mg/kg, SCN8A mouse 6HZ; read-out: Mean [Brain]
parameter: concentration at 2 h (µM)
Expressed in µM, but write only the number.

### Prompt Would you kindly share the measured concentration at 2 h for COC[C@@H](NC(C)=O)C(=O)NCc1ccccc1 [lacosamide, Lacosamide, reference compound] ?
### Response 19.2

====

- assay_remarks: Bioanalytical assessment of plasma and brain concentrations after mouse DC-MES assay
- Assay type: in vivo
- condition: mouse, brain, po, 10 mg/kg, WT mice, 10 mg/kg PO single dose, 2 h; read-out: Mean [Brain]
parameter: concentration at 2 h

### Prompt Query (molecule): `Cc1cc(S(=O)(=O)Nc2cscn2)c(F)cc1N(C)[C@H]1CCN(Cc2ccccc2)C1` ; field requested: concentration at 2 h
### Response 51.9 nM

====

- assay_remarks: Bioanalytical assessment of plasma and brain concentrations after 6 Hz assay
- Assay type: in vivo, mouse
- condition: Scn8a^N1768D/+, mouse, in vivo, 30 mg/kg, Study18011, 30 mg/kg, SCN8A mouse 6HZ; read-out: Mean [Palsma]
parameter: concentration at 2 h (µM)
Respond numerically; units are µM and should not be typed.

### Prompt Return reported concentration at 2 h; argument: COC[C@@H](NC(C)=O)C(=O)NCc1ccccc1 [lacosamide, Lacosamide, reference compound]
### Response 29.6

====

- target_desc: hNaV1.7 (Homo sapiens)
- Construct: expression vector containing the full-length cDNA coding for specific human and mouse sodium channel α-subunit
- Sequence (Q15858 1-1977 isoform Q15858-3): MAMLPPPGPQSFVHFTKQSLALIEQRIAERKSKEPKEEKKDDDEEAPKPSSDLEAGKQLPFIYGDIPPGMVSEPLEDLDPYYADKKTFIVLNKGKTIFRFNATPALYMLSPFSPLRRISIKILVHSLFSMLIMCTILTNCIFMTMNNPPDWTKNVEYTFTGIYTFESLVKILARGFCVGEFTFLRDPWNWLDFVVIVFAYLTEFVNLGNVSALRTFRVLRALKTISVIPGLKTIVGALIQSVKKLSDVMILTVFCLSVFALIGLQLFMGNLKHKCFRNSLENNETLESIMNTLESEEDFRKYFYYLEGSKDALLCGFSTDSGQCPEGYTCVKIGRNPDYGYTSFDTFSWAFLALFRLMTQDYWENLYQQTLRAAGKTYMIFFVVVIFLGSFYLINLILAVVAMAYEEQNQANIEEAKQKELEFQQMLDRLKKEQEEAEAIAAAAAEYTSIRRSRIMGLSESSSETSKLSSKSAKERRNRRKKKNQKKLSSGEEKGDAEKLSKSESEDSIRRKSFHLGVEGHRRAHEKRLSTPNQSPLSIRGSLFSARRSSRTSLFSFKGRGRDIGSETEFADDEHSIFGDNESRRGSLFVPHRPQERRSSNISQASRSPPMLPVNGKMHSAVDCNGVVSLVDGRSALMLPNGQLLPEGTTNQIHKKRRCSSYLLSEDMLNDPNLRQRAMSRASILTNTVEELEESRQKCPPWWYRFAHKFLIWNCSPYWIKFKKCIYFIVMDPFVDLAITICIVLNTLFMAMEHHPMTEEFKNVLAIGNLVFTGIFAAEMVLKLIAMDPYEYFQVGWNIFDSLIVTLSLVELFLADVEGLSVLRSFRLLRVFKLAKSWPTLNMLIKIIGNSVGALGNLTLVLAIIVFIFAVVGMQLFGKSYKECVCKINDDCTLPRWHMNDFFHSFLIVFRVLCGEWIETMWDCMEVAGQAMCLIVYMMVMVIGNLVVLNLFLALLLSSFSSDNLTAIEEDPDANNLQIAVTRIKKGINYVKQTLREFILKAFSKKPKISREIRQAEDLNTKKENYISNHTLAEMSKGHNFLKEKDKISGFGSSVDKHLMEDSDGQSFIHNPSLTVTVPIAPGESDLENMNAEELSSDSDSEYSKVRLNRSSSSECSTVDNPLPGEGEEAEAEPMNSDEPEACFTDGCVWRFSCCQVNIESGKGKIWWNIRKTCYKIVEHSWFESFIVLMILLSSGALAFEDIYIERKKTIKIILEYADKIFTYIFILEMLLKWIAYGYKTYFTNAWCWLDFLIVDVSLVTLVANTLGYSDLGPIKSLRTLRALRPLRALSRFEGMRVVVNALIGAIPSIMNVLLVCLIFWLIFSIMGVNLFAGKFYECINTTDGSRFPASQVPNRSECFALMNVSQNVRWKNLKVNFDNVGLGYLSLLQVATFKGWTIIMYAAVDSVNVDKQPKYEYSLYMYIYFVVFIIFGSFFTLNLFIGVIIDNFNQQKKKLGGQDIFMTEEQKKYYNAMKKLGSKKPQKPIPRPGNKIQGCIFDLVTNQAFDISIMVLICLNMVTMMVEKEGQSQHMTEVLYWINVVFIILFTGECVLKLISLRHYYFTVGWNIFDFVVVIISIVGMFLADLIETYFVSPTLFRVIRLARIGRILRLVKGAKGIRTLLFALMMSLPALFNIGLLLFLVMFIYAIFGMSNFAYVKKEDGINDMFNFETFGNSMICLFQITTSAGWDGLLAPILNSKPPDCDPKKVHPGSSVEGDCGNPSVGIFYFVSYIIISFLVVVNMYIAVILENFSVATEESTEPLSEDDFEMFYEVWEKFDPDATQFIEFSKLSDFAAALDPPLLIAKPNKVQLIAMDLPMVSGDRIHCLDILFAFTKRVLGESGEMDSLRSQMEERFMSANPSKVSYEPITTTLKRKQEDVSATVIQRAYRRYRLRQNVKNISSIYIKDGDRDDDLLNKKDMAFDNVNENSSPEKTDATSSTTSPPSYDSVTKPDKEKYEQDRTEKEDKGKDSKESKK
- assay_remarks: Qube 384 automated patch-clamp, inactivated-state inhibition
- condition: Vh -60 mV, HEK-293
parameter: IC50
Don't forget the unit after the number, please.

### Prompt # lookup: IC50 of `Cc1cc(S(=O)(=O)Nc2cscn2)c(F)cc1N(C)[C@H]1CCN(Cc2ccccc2)C1`
### Response 14 µM

====

- assay_remarks: Bioanalytical assessment of plasma and brain concentrations after mouse DC-MES assay
- Type: in vivo
- condition: mouse, plasma, po, 100 mg/kg, WT mice, 100 mg/kg PO single dose, 2 h; read-out: Mean [Plasma]
parameter: concentration at 2 h (µM)
Numeric only. Scale: µM

### Prompt I would be grateful if you could share the reported concentration at 2 h for Cc1cc(S(=O)(=O)Nc2cscn2)c(F)cc1N(C)[C@H]1CCN(Cc2ccccc2)C1 [NBI-921352] .
### Response 3.33

====

- assay_remarks: Bioanalytical assessment of plasma and brain concentrations after mouse DC-MES assay
- Assay type: in vivo
- condition: mouse, brain, oral, 30 mg/kg, Study17134, 30 mg/kg, WT mouse DC-MES acute; read-out: Mean [Brain]
parameter: concentration at 2 h (µM)
Express your answer in µM, writing the number without its unit.

### Prompt What does the data say about its concentration at 2 h? Entry: NC(=O)N1c2ccccc2C=Cc2ccccc21 [carbamazepine, Carbamazepine, reference compound]
### Response 46

====

- target_desc: mNaV1.1 (Mus musculus)
- Construct: expression vector containing the full-length cDNA coding for specific human and mouse sodium channel α-subunit
- assay_remarks: Qube 384 automated patch-clamp, inactivated-state inhibition
- condition: Vh -45 mV
parameter: pIC50
Would you please state pIC50, meaning minus log10 of the concentration in mol/L, as a bare number?

### Prompt State the recorded pIC50 for this entry: `Cc1cc(S(=O)(=O)Nc2cscn2)c(F)cc1N(C)[C@H]1CCN(Cc2ccccc2)C1`
### Response 4.39
